Data provenance is ChEMBL document CHEMBL4145615.

concentration at 5 h values, listed per item
Assay: Plasma concentration in CD1 mouse at 25 mg/kg, po administered as single dose measured at 5 hrs post dose by LC/MS-MS analysis
Assay type: ADME, organism-based

[
  {
    "Chemical String": "CCCCCCCCn1cc(CN2CCC3(CC2)OCCCS3)c2ccc(OC)cc21",
    "Unit String": "ng/mL",
    "concentration at 5 h": 55.2
  },
  {
    "Chemical String": "CCCCCCCCn1cc(CN2CCC3(CC2)OCCCO3)c2ccc(OC)cc21",
    "Unit String": "ng/mL",
    "concentration at 5 h": 58.5
  },
  {
    "Chemical String": "CCCCCCCCn1cc(CN2CCC3(CC2)OCCO3)c2ccc(OC)cc21",
    "Unit String": "ng/mL",
    "concentration at 5 h": 33
  }
]

---

Assay: Hemolytic activity against human RBC after 1 hr
Format: ADME, cell-based, Erythrocyte
Details: red blood cells (erythrocytes)
This listing pairs compounds with measured HC50 at 1 h.
Quantity Kind: HC50 at 1 h (µM)

[
  {
    "Compound": "CCCCCCCCn1cc(CN2CCC3(CCN(Cc4ccccc4)CC3)CC2)c2ccc(OC)cc21",
    "Inequality Sign": "=",
    "Numeric Result": 69
  },
  {
    "Compound": "COc1ccc2c(CN3CCC4(CC3)OCCCO4)cn(CCCCc3ccccc3)c2c1",
    "Inequality Sign": ">",
    "Numeric Result": 300
  },
  {
    "Compound": "CCCCCCCCn1cc(CN2CCC3(CC2)OC(C)C(C)O3)c2ccc(OC)cc21 (stereo unspecified)",
    "Inequality Sign": "=",
    "Numeric Result": 76
  },
  {
    "Compound": "CCCCCCCCn1cc(CN2CCC3(CC2)SCCS3)c2ccc(OC)cc21",
    "Inequality Sign": ">",
    "Numeric Result": 300
  },
  {
    "Compound": "CCCCCCCCn1cc(CN2CCC3(CCO3)CC2)c2ccc(OC)cc21",
    "Inequality Sign": "=",
    "Numeric Result": 88
  },
  {
    "Compound": "CCCCCCCCn1cc(CN2CCC3(CC2)OCCO3)c2ccc(OC(C)C)cc21",
    "Inequality Sign": "=",
    "Numeric Result": 56
  },
  {
    "Compound": "COc1ccc2c(CN3CCC4(CC3)OCCCO4)cn(CCCOc3ccc(C)cc3)c2c1",
    "Inequality Sign": ">",
    "Numeric Result": 300
  },
  {
    "Compound": "CCCCCCCCn1cc(CN2CCC3(CC2)OCCO3)c2ccc(C#N)cc21",
    "Inequality Sign": ">",
    "Numeric Result": 300
  },
  {
    "Compound": "CCCCCCCCn1cc(CN2CCC3(CC2)OCCCO3)c2ccc(OCCC)cc21",
    "Inequality Sign": "=",
    "Numeric Result": 27
  },
  {
    "Compound": "CCCCCCCCn1cc(CN2CCC3(CC2)OCCCO3)c2ccc(OCc3ccccc3)cc21",
    "Inequality Sign": ">",
    "Numeric Result": 300
  },
  {
    "Compound": "CCCCCCCCn1cc(CN2CCC3(CC2)OC[C@H](C)O3)c2ccc(OC)cc21",
    "Inequality Sign": "=",
    "Numeric Result": 51
  },
  {
    "Compound": "CCCCCCCCn1cc(CN2CCCC3(CC2)OCCCS3)c2ccc(OC)cc21 (stereo unspecified)",
    "Inequality Sign": "=",
    "Numeric Result": 132
  },
  {
    "Compound": "CCCCCCCCn1cc(CN2CCC3(CC2)OCCCO3)c2ccc(C#N)cc21",
    "Inequality Sign": ">",
    "Numeric Result": 300
  },
  {
    "Compound": "CCCCCCCCn1cc(CN2CCC3(CCc4ccccc43)CC2)c2ccc(OC)cc21",
    "Inequality Sign": ">",
    "Numeric Result": 300
  },
  {
    "Compound": "CCCCCCCCn1cc(CN2CCC3(CC2)OCCCS3)c2ccc(OC)cc21",
    "Inequality Sign": ">",
    "Numeric Result": 300
  },
  {
    "Compound": "CCCCCCCCn1cc(CN2CCC3(CC2)OCCCO3)c2ccc(OC(C)C)cc21",
    "Inequality Sign": "=",
    "Numeric Result": 29
  },
  {
    "Compound": "COc1ccc(OCCCn2cc(CN3CCC4(CC3)OCCCO4)c3ccc(OC)cc32)cc1",
    "Inequality Sign": ">",
    "Numeric Result": 300
  },
  {
    "Compound": "CCCCCCCCn1cc(CN2CCC3(CC2)OCCS3)c2ccc(OC)cc21",
    "Inequality Sign": ">",
    "Numeric Result": 300
  },
  {
    "Compound": "COc1ccc2c(CN3CCC4(CC3)OCCCO4)cn(CCCOc3ccccc3)c2c1",
    "Inequality Sign": ">",
    "Numeric Result": 300
  },
  {
    "Compound": "COc1ccc2c(CN3CCC4(CC3)OCCCO4)cn(CCCOc3ccc(F)cc3)c2c1",
    "Inequality Sign": ">",
    "Numeric Result": 300
  },
  {
    "Compound": "CCCCCCCCn1cc(CNCC2CC3CC3C2)c2ccc(OC)cc21 (stereo unspecified)",
    "Inequality Sign": "=",
    "Numeric Result": 33
  }
]

---

Assay: Selectivity index, ratio of IC50 for African green monkey Vero E6 cells to MIC50 for Mycobacterium bovis BCG ATCC 35734
Assay type: toxicity, Vero C1008
Settings: read-out: Selectivity Index
Each record is given Y if its reported selectivity ratio is strictly below 10. Records at or above 10 are given N.

[
  {
    "Compound": "CCCCCCCCn1cc(CNCC2CCC3CC3C2)c2ccc(OC)cc21 (stereo not given)",
    "Class Label": "N"
  },
  {
    "Compound": "CCCCCCCCn1cc(CN2CCC3(C=Cc4ccccc43)CC2)c2ccc(OC)cc21",
    "Class Label": "N"
  },
  {
    "Compound": "CCCCCCCCn1cc(CN2CCC3(CCO3)CC2)c2ccc(OC)cc21",
    "Class Label": "N"
  },
  {
    "Compound": "CCCCCCCCn1cc(CNCC2CCC3(CCCC3)O2)c2ccc(OC)cc21 (stereo not given)",
    "Class Label": "N"
  },
  {
    "Compound": "CCCCCCCCn1cc(CN2CCC3(CC2)OC(C)C(C)O3)c2ccc(OC)cc21 (stereo not given)",
    "Class Label": "N"
  },
  {
    "Compound": "CCCCCCCCn1cc(CN2CCC3(CC2)SCCS3)c2ccc(OC)cc21",
    "Class Label": "N"
  },
  {
    "Compound": "CCCCCCCCn1cc(CN2CCC3(CCc4ccccc43)CC2)c2ccc(OC)cc21",
    "Class Label": "N"
  },
  {
    "Compound": "CCCCCCCCn1cc(CN2[C@H]3CCC[C@@H]2CCC3)c2ccc(OC)cc21",
    "Class Label": "Y"
  },
  {
    "Compound": "CCCCCCCCn1cc(CNC2Cc3ccccc3C2)c2ccc(OC)cc21",
    "Class Label": "Y"
  },
  {
    "Compound": "CCCCCCCCn1cc(CN2CCOC3(CCCOC3)C2)c2ccc(OC)cc21 (stereo not given)",
    "Class Label": "N"
  }
]

---

Experiment: Drug uptake in lungs of CD1 mouse at 25 mg/kg, po administered as single dose measured at 5 hrs post dose by LC/MS-MS analysis
Type: ADME, organism-based
Conditions: lung, read-out: Drug uptake

[
  {
    "Chemical String": "CCCCCCCCn1cc(CN2CCC3(CC2)OCCCS3)c2ccc(OC)cc21",
    "concentration at 5 h": "1600 ng/g"
  },
  {
    "Chemical String": "CCCCCCCCn1cc(CN2CCC3(CC2)OCCO3)c2ccc(OC)cc21",
    "concentration at 5 h": "468 ng/g"
  }
]

---

Tested on: Vero C1008
Assay: Cytotoxicity against African green monkey Vero E6 cells assessed as cell growth inhibition after 48 hrs by celltitre 96 aqueous one-based assay
Settings: Chlorocebus sabaeus, Vero C1008, 48 h

[
  {
    "Compound": "CCCCCCCCn1cc(CNC2CCC3(CC2)OCCO3)c2ccc(OC)cc21",
    "IC50 (µM)": 22
  },
  {
    "Compound": "CCCCCCCCn1cc(CNC2Cc3ccccc3C2)c2ccc(OC)cc21",
    "IC50 (µM)": 24
  },
  {
    "Compound": "CCCCCCCCn1cc(CN2CCC3(CC2)OCCCO3)c2ccc(C#N)cc21",
    "IC50 (µM)": 22
  },
  {
    "Compound": "CCCCCCCCn1ccc2cc(OCCCN3CCCCCC3)ccc21",
    "IC50 (µM)": 34
  },
  {
    "Compound": "CCCCCCCCn1cc(CN2[C@H]3CCC[C@@H]2CCC3)c2ccc(OC)cc21",
    "IC50 (µM)": 31
  },
  {
    "Compound": "CCCCCCCCn1cc(CN2CCC3(CC2)OCCCO3)c2ccc(OC)cc21",
    "IC50 (µM)": 29
  },
  {
    "Compound": "CCCCCCCCn1cc(CN2CCC3(CC2)OC(C)C(C)O3)c2ccc(OC)cc21 (stereo not given)",
    "IC50 (µM)": 34
  },
  {
    "Compound": "CCCCCCCCn1cc(CN2CCC3(CCc4ccccc43)CC2)c2ccc(OC)cc21",
    "IC50 (µM)": 31
  },
  {
    "Compound": "CCCCCCCCn1cc(CN2CCC3(CC2)OCCCS3)c2ccc(OC)cc21",
    "IC50 (µM)": 39
  },
  {
    "Compound": "CCCCCCCCn1cc(CN2CCC3(CC2)OCCS3)c2ccc(OC)cc21",
    "IC50 (µM)": 64
  }
]
